Just for reference, PubChem BioAssay is where these values come from.

Assignment: determine reported z-score for the given compounds.
test: inhibitors of hydroxyurea-induced Chk1 phosphorylation, primary screen, imaging, HeLa, phospho-Chk1 nuclear intensity (AID 1187); conditions: hydroxyurea-induced phospho-Chk1 immunofluorescence imaging, higher = more signal; further: test concentration not given here
Answers are plain numbers.

mol=COC(=O)[C@@]1(Cc2ccc(OC)cc2)[C@H]2c3cc(C(=O)N(C)C)n(Cc4ccc(S(C)(=O)=O)cc4)c3C[C@H]2CN1C(=O)c1ccccc1 measurementname=z-score quantitativeresult=-1.03
mol=CCOC(=O)C[C@H]1[C@H](OC(=O)c2ccc(-c3ccccc3)cc2)[C@@H](NC(=O)Cc2ccc(OC)cc2)c2cc(OCCCO)ccc2N1C(=O)c1ccccc1 measurementname=z-score quantitativeresult=0.106

Would you kindly look at the next entry?
Would you mind telling me what z-score value was observed for CO[C@H]1O[C@H](CO)[C@@H](OC(=O)Nc2ccc(C(F)(F)F)cc2)[C@H](OC(=O)Nc2ccc3c(c2)OCO3)[C@@H]1OC(=O)Nc1ccc2c(c1)OCO2 ?
-0.0864

====

assay: CREB reporter modulators without forskolin, primary screen, cell-based, PC12, CRE-LacZ reporter, unstimulated (AID 1145); details: no forskolin, luminescence, 4.5 h, called active from +8 up or from −8 down
The source made the active and inactive calls.
Hi there, use one of these labels in your reply, thanks! true for active, false for inactive

As a guide, the following entries are already answered.
mol=COc1ccc(C(=O)Nc2ccc(CN3C(=O)[C@]4(O[C@H](CCO)[C@@H]([Si](C)(C)c5ccc(OC)cc5)[C@@H]4C)c4ccccc43)cc2)cc1 label=true
mol=COCCOC(=O)N1C(=O)[C@@]2(c3cc(C#Cc4ccc(OC)cc4)ccc31)[C@H](c1ccccc1OCCO)N1[C@H](c3ccccc3)[C@H](c3ccccc3)OC(=O)[C@H]1[C@@H]2C(=O)NC[C@H](O)c1ccccc1 label=false
mol=COC(=O)[C@@]1(Cc2ccc(OC)cc2)[C@H]2c3cc(C(=O)N(C)C)n(CCc4ccccn4)c3C[C@H]2CN1C(=O)c1ccccc1 label=false
mol=CC(C)=CCN[C@H](CO)c1ccccc1 label=false
mol=COC(=O)[C@]1(CCC(=O)OC(C)(C)C)N=C(c2ccc(OCCCO)cc2)O[C@@H]1c1ccccc1CN=[N+]=[N-] label=false

Hey, what did the test say about COc1cc2c(cc1OC)CN(C(=O)[C@H]1[C@@H]3C(=O)O[C@@H](c4ccccc4)[C@@H](c4ccccc4)N3[C@@H](c3ccc(O)cc3)[C@]13C(=O)Nc1ccc(C#CCCO)cc13)CC2 ?
false

====

Assignment: determine reported composite z-score for the given molecules.
assay: small-molecule microarray binders of probe aCHRDL2, primary screen, biochemical, biotinylated probe, 635/667 nm fluorescence (AID 1100); settings: higher = more signal
Give bare numbers.

As a guide, the following entries are already answered.
molecule=CN(C)CCCC[C@@H]1NC(=O)[C@H]2C[C@@H](C(=O)NCCCCCCN)[C@@H](c3ccc(O)cc3)N2C1=O quantitativeresult=1.07
molecule="C=CCC(OC(C)=O)[C@@H]1[C@@H](N(Cc2ccc(-c3ccccc3)cc2)C(=O)c2cccc3ccccc23)c2cc(OCCCO)ccc2N1C(=O)c1ccc(-c2ccccc2)cc1 (some centres undefined)" quantitativeresult=0.672
molecule=CN(C)CCCCCCNC(=O)[C@H]1C[C@H]2C(=O)N[C@@H](CCCCN)C(=O)N2[C@H]1c1cccc(OCCO)c1 quantitativeresult=1.72
molecule="CC(=O)n1cc(C(O)C2C=CC3C(=O)N(c4ccccc4)C(=O)C3N2Nc2ccc([N+](=O)[O-])cc2)c2ccccc21 (centres undefined)" quantitativeresult=1.38
molecule=NCCCCCNC(=O)[C@@H]1C[C@@H]2C(=O)N[C@@H](Cc3ccccc3)C(=O)N2[C@@H]1c1ccc(O)cc1 quantitativeresult=0.475

// each listed molecule needs a value for composite z-score
1. O=C1O[C@@H](c2ccccc2)[C@@H](c2ccccc2)N2[C@@H](c3ccccc3OCCO)[C@]3(C(=O)Nc4ccc(C#CC5=CCCCC5)cc43)[C@@H](C(=O)N3CCCCCCC3)[C@H]12
2. COC(=O)[C@@]1(CCS(=O)(=O)c2ccccc2)N=C(c2ccc(OCCCO)cc2)O[C@H]1c1ccccc1CN=[N+]=[N-]
3. COc1ccccc1CN1C(=O)c2ccccc2[C@@H](C(=O)NC2CC2)[C@@H]1c1ccc(CO)cc1

[1.63, 1.2, 0.556]
